- ASSAY PROCEDURE: plasma/brain PO snapshot study in rats
- Format: in vivo, rat
- CONDITION PARAMETERS: rat, plasma, po
MEASUREMENT NAME: AUC (ng·h/mL)
Write the answer as a number in ng·h/mL, unit excluded.

Form: compound = Fc1ccc(Nc2n[nH]c3cccnc23)cc1Cl [Compound 26] ; AUC = 8770

----------
- ASSAY PROCEDURE: in vivo
- CONDITION PARAMETERS: rat, in vivo, po, 10 mg/kg
MEASUREMENT NAME: bioavailability
Answer as a quantity: numeral, then unit.

Form: compound = `Fc1ccc(Nc2n[nH]c3cccnc23)cc1Cl` ; bioavailability = 95%

----------
- EXPERIMENTAL TARGET: CYP1A2 (Homo sapiens)
- Sequence (P05177 1-516): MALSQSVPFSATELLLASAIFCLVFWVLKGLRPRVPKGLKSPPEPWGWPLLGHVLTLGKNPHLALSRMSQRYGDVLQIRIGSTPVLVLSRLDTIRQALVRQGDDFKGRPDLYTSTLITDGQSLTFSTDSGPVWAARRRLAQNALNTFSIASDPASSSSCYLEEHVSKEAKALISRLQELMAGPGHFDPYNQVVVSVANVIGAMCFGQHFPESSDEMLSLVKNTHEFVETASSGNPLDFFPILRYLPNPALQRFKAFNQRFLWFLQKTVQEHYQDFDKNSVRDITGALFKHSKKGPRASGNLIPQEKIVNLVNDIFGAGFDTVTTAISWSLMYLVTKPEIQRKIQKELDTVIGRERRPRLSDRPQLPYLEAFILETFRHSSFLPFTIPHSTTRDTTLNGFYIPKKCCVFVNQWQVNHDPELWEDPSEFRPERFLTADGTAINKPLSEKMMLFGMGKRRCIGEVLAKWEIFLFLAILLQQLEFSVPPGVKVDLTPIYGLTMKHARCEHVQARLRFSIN
MEASUREMENT NAME: IC50

Form: compound = Fc1ccc(Nc2n[nH]c3cccnc23)cc1Cl [Compound 26] ; IC50 = < 100 nM

----------
- ASSAY PROCEDURE: plasma/brain PO snapshot study in rats
- Assay type: in vivo, rat
- CONDITION PARAMETERS: rat, brain/plasma, po
MEASUREMENT NAME: Kp at 6 h
API note: the answer field is a bare number with no unit suffix.

Form: compound = `Fc1ccc(Nc2n[nH]c3cccnc23)cc1Cl` ; Kp at 6 h = 2.1
